Ref: patent US20240254083A1

The entries below come with measured EC50 values attached.
TARGET_SYSTEM: hTRPML1 (Homo sapiens, UniProt Q9GZU1)
Construct: expressed in transfected cells
Sequence (Q9GZU1 whole entry): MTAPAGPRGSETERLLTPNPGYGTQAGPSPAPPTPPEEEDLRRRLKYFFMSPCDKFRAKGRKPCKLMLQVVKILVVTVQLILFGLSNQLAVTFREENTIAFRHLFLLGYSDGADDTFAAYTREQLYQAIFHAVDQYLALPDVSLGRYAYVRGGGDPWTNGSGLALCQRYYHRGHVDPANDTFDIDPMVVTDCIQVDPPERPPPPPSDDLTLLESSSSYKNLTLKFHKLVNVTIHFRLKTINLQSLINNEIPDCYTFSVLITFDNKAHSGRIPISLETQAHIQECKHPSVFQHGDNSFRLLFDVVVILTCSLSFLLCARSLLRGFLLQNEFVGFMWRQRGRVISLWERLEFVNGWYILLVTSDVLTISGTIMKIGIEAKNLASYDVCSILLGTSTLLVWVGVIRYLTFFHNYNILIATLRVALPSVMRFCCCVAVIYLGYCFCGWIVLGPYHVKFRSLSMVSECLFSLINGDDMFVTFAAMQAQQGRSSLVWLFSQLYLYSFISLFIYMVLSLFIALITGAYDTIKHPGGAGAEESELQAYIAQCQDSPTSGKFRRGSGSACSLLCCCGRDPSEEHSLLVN
MEASUREMENT_DESCRIPTION: Cellular TRPML1 assay (FLIPR, GCaMP6f calcium read-out)
Type: cell-based
CONDITION: HEK T-REx/GCaMP6f/TRPML1 cells, FLIPR TETRA, kinetic response over 300 seconds; read-out: hTRPML1 FLIPR pEC50 (converted)

Data point: CN(C)S(=O)(=O)c1ccc(S(=O)(=O)Nc2ccccc2N2CCC[C@H](OCc3ccccc3)C2)cc1 (single isomer, unassigned) ; EC50 = 1 to 3.16 µM

Data point: `Cc1ccc(S(=O)(=O)Nc2c(C)cccc2N2CCN(C(=O)OC(C)(C)C)CC2)cc1` ; EC50 = 1 to 3.16 µM

Data point: CN(C)S(=O)(=O)c1ccc(S(=O)(=O)Nc2ccccc2N2CCC[C@H](Oc3ccccc3)C2)cc1 (single isomer, unassigned) ; EC50 = > 3.16 µM

Data point: `CCCN(C(=O)c1ccc(S(=O)(=O)N(C)C)cc1)c1ccccc1N1CCC(Oc2ccccc2)CC1` ; EC50 = 1 to 3.16 µM
